experimentSummary: Mouse pharmacokinetic assay
Assay type: in vivo, male ICR mice
details: male, ICR, plasma, intravenous administration 1 mg/kg
Entries annotated with measured half-life
endpoint: half-life (h)

1. C[C@H](NC(=O)c1c(C(F)F)nn(C)c1Oc1cccc(C(C)(F)F)c1)c1ccc(C(=O)O)cc1 [Compound I-5]    5.11
2. C[C@H](NC(=O)c1c(C(F)F)nn(C)c1Oc1cccc(C(F)(F)F)c1)c1ccc(C(=O)O)cc1 [Control Compound, reference compound]    6.64

###

Entries annotated with measured Tmax
experimentSummary: Mouse pharmacokinetic assay
Assay type: in vivo, male ICR mice
details: male, ICR, plasma, oral gavage administration 5 mg/kg
endpoint: Tmax (min)

1. C[C@H](NC(=O)c1c(C(F)F)nn(C)c1Oc1cccc(CC(F)(F)F)c1)c1ccc(C(=O)O)cc1 [Compound I-6]    25.2
2. CCc1cccc(Oc2c(C(=O)N[C@@H](C)c3ccc(C(=O)O)cc3)c(C(F)F)nn2C)c1 [Compound I-1]    19.8
3. C[C@H](NC(=O)c1c(C(F)F)nn(C)c1Oc1cccc(C(F)(F)F)c1)c1ccc(C(=O)O)cc1 [Control Compound, reference compound]    15
4. C[C@H](NC(=O)c1c(C(F)F)nn(C)c1Oc1cccc(OCC(F)(F)F)c1)c1ccc(C(=O)O)cc1 [Compound I-33]    19.8

###

Entries annotated with measured AUC(0-t)
experimentSummary: Rat pharmacokinetic assay
Format: in vivo, male SD rats
details: male, SD, plasma; rat; intravenous administration 1 mg/kg
endpoint: AUC(0-t) (ng·h/mL)

1) C[C@H](NC(=O)c1c(C(F)F)nn(C)c1Oc1cccc(C(F)(F)F)c1)c1ccc(C(=O)O)cc1 [Control Compound, reference compound]    1420
2) C[C@H](NC(=O)c1c(C(F)F)nn(C)c1Oc1cccc(C(C)(F)F)c1)c1ccc(C(=O)O)cc1 [Compound I-5]    1670
3) C[C@H](NC(=O)c1c(C(F)F)nn(C)c1Oc1cccc(OCC(F)(F)F)c1)c1ccc(C(=O)O)cc1 [Compound I-33]    4670

###

experimentSummary: Mouse pharmacokinetic assay
Format: in vivo, male ICR mice
details: male, ICR, plasma, oral gavage administration 5 mg/kg
Entries annotated with measured AUC(0-t)
endpoint: AUC(0-t) (ng·h/mL)

1. C[C@H](NC(=O)c1c(C(F)F)nn(C)c1Oc1cccc(C(F)(F)F)c1)c1ccc(C(=O)O)cc1 [Control Compound, reference compound]    1770
2. C[C@H](NC(=O)c1c(C(F)F)nn(C)c1Oc1csc(C(F)(F)F)c1)c1ccc(C(=O)O)cc1    2440
3. CCc1cc(Oc2c(C(=O)N[C@@H](C)c3ccc(C(=O)O)cc3)c(C(F)F)nn2C)ccc1F    2140
4. C[C@H](NC(=O)c1c(C(F)F)nn(C)c1Oc1cccc(OCC(F)(F)F)c1)c1ccc(C(=O)O)cc1    8290

###

targetOrTestSystem: recombinant human EP4 receptor membrane protein (Homo sapiens)
Sequence (P35408 whole entry): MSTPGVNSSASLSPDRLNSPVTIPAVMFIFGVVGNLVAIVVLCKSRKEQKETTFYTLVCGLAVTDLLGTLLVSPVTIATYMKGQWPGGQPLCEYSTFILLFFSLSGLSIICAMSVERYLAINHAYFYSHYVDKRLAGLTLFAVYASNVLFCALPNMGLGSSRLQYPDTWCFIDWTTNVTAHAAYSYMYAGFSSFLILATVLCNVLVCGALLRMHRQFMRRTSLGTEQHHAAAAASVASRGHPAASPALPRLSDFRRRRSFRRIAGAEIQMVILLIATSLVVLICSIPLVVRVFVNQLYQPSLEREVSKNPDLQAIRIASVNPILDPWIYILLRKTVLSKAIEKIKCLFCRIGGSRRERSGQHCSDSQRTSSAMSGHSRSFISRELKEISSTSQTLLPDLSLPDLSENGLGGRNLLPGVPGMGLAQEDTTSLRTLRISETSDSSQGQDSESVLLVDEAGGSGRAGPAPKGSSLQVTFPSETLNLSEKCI
experimentSummary: Radioligand binding assay for EP4 receptor ([3H]-PGE2)
details: [3H]-PGE2 1.5 nM; membrane protein 20 μg/well
Procedure: The compounds to be tested and PGE2 were formulated as 10 mM stocks in a DMSO solvent, and then 8 concentration points of 4× working solution were serially diluted using a buffer (50 mM HBSS, 0.1% BSA, 500 mM NaCl). […] The ^3H counts captured on the filter were read using a Perkin Elmer MicroBeta2 Reader. The IC50 and Ki values of the compounds determined by the radioligand binding assay for EP4 receptor were calculated based on the inhibition rate of the different concentrations of the compounds.
endpoint: Ki (nM)

1) C[C@H](NC(=O)c1c(C(F)F)nn(C)c1Oc1cccc(C2CC2)c1)c1ccc(C(=O)O)cc1    4.9
2) C[C@H](NC(=O)c1c(C(F)F)nn(C)c1Oc1csc(C(F)(F)F)c1)c1ccc(C(=O)O)cc1    7.3
3) CC(O)c1cc(Oc2c(C(=O)N[C@@H](C)c3ccc(C(=O)O)cc3)c(C(F)F)nn2C)ccc1F (some centres unmarked)    7
4) CCc1cc(Oc2c(C(=O)N[C@@H](C)c3ccc(C(=O)O)cc3)c(C(F)F)nn2C)ccc1F    3
5) CSc1cccc(Oc2c(C(=O)N[C@@H](C)c3ccc(C(=O)O)cc3)c(C(F)F)nn2C)c1    6.6
6) C[C@H](NC(=O)c1c(C(F)F)nn(C)c1Oc1cccc(CC(F)(F)F)c1)c1ccc(C(=O)O)cc1    5.8
7) CCc1cccc(Oc2c(C(=O)N[C@@H](C)c3ccc(C(=O)O)cc3)c(C(F)F)nn2C)c1    8.9
8) CC(c1cccc(Oc2c(C(=O)N[C@@H](C)c3ccc(C(=O)O)cc3)c(C(F)F)nn2C)c1)C(F)(F)F (some centres unmarked)    6.6
9) CC(C)c1cccc(Oc2c(C(=O)N[C@@H](C)c3ccc(C(=O)O)cc3)c(C(F)F)nn2C)c1    4
10) CCc1cc(Oc2c(C(=O)N[C@@H](C)c3ccc(C(=O)O)cc3)c(C(F)F)nn2C)ccc1Cl    3.7
11) C[C@H](NC(=O)c1c(C(F)F)nn(C)c1Oc1cccc(OCC(F)(F)F)c1)c1ccc(C(=O)O)cc1    17
12) C[C@H](NC(=O)c1c(C(F)F)nn(C)c1Sc1cccc(C(F)(F)F)c1)c1ccc(C(=O)O)cc1    15
13) C[C@H](NC(=O)c1c(C(F)F)nn(C)c1Oc1cccc(C(C)(F)F)c1)c1ccc(C(=O)O)cc1    2.9
14) C[C@H](NC(=O)c1c(C(F)F)nn(C)c1Oc1ccc(F)c(C(C)(F)F)c1)c1ccc(C(=O)O)cc1    2.2
